Molecular target: Human AMPK α2ß2γ1 (Homo sapiens, UniProt O43741+P54646)
Construct: The full length cDNAs of human AMPK ß2 (NM_005399.3) and human AMPK α2 (NM_006252.3); The full length cDNAs of human AMPK ß2 (NM_005399.3); 6xHis (N); made in house; host or cells: Escherichia coli BL21 CodonPlus (DE3)-RIL
Sequence (P54646 whole entry): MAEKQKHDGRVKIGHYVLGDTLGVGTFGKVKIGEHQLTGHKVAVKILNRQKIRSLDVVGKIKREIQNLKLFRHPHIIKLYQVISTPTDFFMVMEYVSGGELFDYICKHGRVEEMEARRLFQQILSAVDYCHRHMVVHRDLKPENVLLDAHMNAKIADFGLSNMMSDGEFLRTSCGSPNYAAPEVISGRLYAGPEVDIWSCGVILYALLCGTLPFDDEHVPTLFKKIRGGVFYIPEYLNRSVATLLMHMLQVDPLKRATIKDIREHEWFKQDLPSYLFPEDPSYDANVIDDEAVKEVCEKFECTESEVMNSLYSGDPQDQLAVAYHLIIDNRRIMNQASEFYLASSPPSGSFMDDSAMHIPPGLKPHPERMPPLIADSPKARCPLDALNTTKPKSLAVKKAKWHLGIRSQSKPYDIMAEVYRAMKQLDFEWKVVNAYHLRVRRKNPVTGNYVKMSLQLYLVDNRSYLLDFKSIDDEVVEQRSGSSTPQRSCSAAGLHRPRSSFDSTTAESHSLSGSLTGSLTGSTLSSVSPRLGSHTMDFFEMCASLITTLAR
Sequence (O43741 whole entry): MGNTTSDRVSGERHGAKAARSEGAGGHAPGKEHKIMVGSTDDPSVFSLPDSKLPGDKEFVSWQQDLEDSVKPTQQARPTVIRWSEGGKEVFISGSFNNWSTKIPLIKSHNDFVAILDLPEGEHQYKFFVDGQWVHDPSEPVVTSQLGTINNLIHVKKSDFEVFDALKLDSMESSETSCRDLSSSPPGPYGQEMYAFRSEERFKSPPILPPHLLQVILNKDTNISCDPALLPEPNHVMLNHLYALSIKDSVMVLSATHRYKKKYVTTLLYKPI
Sequence (P54619 whole entry partner): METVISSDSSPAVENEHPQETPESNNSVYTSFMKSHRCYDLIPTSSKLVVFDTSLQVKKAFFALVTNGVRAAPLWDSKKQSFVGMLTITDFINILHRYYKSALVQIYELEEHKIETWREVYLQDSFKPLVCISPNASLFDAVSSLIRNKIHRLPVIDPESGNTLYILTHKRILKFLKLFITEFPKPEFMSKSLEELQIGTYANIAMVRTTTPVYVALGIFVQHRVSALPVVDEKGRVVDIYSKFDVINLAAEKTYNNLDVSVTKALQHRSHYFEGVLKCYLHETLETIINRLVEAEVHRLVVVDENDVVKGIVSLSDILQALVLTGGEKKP
Experiment: Test Example 2: evaluation of an activator for AMP-activated protein kinase (AMPK), LabChip mobility shift assay with CaMKK2-phosphorylated enzyme
Type: biochemical
Conditions: relative to control (100%), read-out: Emax (maximum rate of increase in activity within the measurement range)
Procedure: The full length cDNAs of human AMPK ß2 (NM_005399.3) and human AMPK α2 (NM_006252.3) were inserted into the MCS1 and MCS2 of the pETDuet-1 vector to prepare a human AMPK ß2 and human AMPK α2 (6× His tag at the 5′ terminus) expressing plasmid. […] A conversion rate was calculated from the peak heights of the obtained substrate and product. […]
assay-readout: Emax (%)
State just the number; it will be interpreted in %.

{"compound": "O[C@@H]1CO[C@H]2[C@@H]1OC[C@H]2Oc1nc2nc(N[C@H]3CCc4cc(-c5cnn(C6COC6)c5)cc(F)c43)c(Cl)cc2[nH]1", "measurement-target": "Human AMPK α2ß2γ1 (Homo sapiens, UniProt O43741+P54646)", "display-unit": "%", "Emax": 609}
{"compound": "COC/C=C/c1cnc2c(c1)CCC2Nc1nc2nc(O[C@@H]3CO[C@H]4[C@@H]3OC[C@H]4O)[nH]c2cc1Cl (single isomer, unassigned)", "measurement-target": "Human AMPK α2ß2γ1 (Homo sapiens, UniProt O43741+P54646)", "display-unit": "%", "Emax": 604}
{"compound": "O[C@@H]1CO[C@H]2[C@@H]1OC[C@H]2Oc1nc2nc(NC3CCc4cc(OCCOC5CCCC5)cc(F)c43)c(Cl)cc2[nH]1 (stereo partly shown)", "measurement-target": "Human AMPK α2ß2γ1 (Homo sapiens, UniProt O43741+P54646)", "display-unit": "%", "Emax": 600}

Let us examine a further case.
Recorded Emax (compound CC(C)(C)OCCOc1cc(F)c2c(c1)CCC2Nc1nc2nc(O[C@@H]3CO[C@H]4[C@@H]3OC[C@H]4O)[nH]c2cc1Cl (stereo partly shown) ): 612

====

target: Human AMPK α2ß2γ1 (Homo sapiens, UniProt O43741+P54646); construct: The full length cDNAs of human AMPK ß2 (NM_005399.3) and human AMPK α2 (NM_006252.3); The full length cDNAs of human AMPK ß2 (NM_005399.3); 6xHis (N); made in house; host or cells: Escherichia coli BL21 CodonPlus (DE3)-RIL; experiment: Test Example 2: evaluation of an activator for AMP-activated protein kinase (AMPK), LabChip mobility shift assay with CaMKK2-phosphorylated enzyme; assay type: biochemical; details: FL-Peptide 7 substrate, 25° C., 2 hours
assay-readout: EC150 (compound concentration showing 150% relative to the control (100%)) (nM)
State just the number; it will be interpreted in nM.

Below: 3 compounds and their reported EC150 (compound concentration showing 150% relative to the control (100%)).
{"compound": "CC(C)OCCOc1cc(F)c2c(c1)CCC2Nc1nc2nc(O[C@@H]3CO[C@H]4[C@@H]3OC[C@H]4O)[nH]c2cc1Cl (stereo partly shown) [Compound I-2-36]", "measured": 3.9}
{"compound": "Cn1nccc1-c1cc(F)c2c(c1)CCC2Oc1nc2nc(O[C@@H]3CO[C@H]4[C@@H]3OC[C@H]4O)[nH]c2cc1Cl (stereo partly shown) [Compound I-1-76]", "measured": 15}
{"compound": "OC/C=C/c1cnc2c(c1)CCC2Nc1nc2nc(O[C@@H]3CO[C@H]4[C@@H]3OC[C@H]4O)[nH]c2cc1Cl (stereo partly shown) [Compound I-1-6]", "measured": 6.8}

Let us examine a further case.
Recorded EC150 (compound concentration showing 150% relative to the control (100%)) (compound CCOc1cc(F)c2c(c1)CCC2Nc1nc2nc(O[C@@H]3CO[C@H]4[C@@H]3OC[C@H]4O)[nH]c2cc1Cl (stereo partly shown) [Compound I-1-90] ): 11

====

Catalogue of compounds with associated EC150 (compound concentration showing 150% relative to the control (100%))
target: Human AMPK α2ß2γ1 (Homo sapiens, UniProt O43741+P54646); construct: The full length cDNAs of human AMPK ß2 (NM_005399.3) and human AMPK α2 (NM_006252.3); The full length cDNAs of human AMPK ß2 (NM_005399.3); 6xHis (N); made in house; host or cells: Escherichia coli BL21 CodonPlus (DE3)-RIL; assay: Test Example 2: evaluation of an activator for AMP-activated protein kinase (AMPK), LabChip mobility shift assay with CaMKK2-phosphorylated enzyme; format: biochemical; details: FL-Peptide 7 substrate, 25° C., 2 hours
State just the number; it will be interpreted in nM.

Below: 4 compounds and their reported EC150 (compound concentration showing 150% relative to the control (100%)).
{"compound": "O[C@@H]1CO[C@H]2[C@@H]1OC[C@H]2Oc1nc2nc(NC3CCc4cc(OCCOC5CC5)cc(F)c43)c(Cl)cc2[nH]1 (some centres unmarked)", "display-unit": "nM", "measured": 4.1}
{"compound": "CC(C)(O)COc1cc(F)c2c(c1)CCC2Nc1nc2nc(O[C@@H]3CO[C@H]4[C@@H]3OC[C@H]4O)[nH]c2cc1Cl (some centres unmarked)", "display-unit": "nM", "measured": 3.9}
{"compound": "O[C@@H]1CO[C@H]2[C@@H]1OC[C@H]2Oc1nc2nc(NC3CCc4cc(OCC5COC5)cc(F)c43)c(Cl)cc2[nH]1 (some centres unmarked)", "display-unit": "nM", "measured": 4}
{"compound": "O[C@@H]1CO[C@H]2[C@@H]1OC[C@H]2Oc1nc2nc(NC3CCc4cc(OC5CCNCC5)cc(F)c43)c(Cl)cc2[nH]1 (some centres unmarked)", "display-unit": "nM", "measured": 4}

Here COCC(=O)Nc1cc(F)c2c(c1)CCC2Nc1nc2nc(O[C@@H]3CO[C@H]4[C@@H]3OC[C@H]4O)[nH]c2cc1Cl (some centres unmarked) was tested on Human AMPK α2ß2γ1 (Homo sapiens, UniProt O43741+P54646), and its EC150 (compound concentration showing 150% relative to the control (100%)) came to 4.1
